Data provenance: paper PMC9352680

Target: T1, PUF4 RNA-binding domain (Saccharomyces cerevisiae, UniProt P25339 537-888)
T1 sequence: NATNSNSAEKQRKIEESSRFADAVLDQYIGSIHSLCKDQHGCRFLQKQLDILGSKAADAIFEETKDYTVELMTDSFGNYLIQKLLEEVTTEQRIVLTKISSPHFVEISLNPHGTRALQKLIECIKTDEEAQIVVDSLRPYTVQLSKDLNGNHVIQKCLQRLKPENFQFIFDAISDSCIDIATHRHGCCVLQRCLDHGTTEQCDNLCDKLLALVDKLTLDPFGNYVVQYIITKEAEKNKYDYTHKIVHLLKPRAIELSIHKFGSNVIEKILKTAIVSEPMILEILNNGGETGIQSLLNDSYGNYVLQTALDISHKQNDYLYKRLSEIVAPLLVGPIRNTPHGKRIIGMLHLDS
Assay: Mg; RNA-MaP; 20 mM Na-HEPES pH 7.4, 30 mM KOAc, 0.75 mM MgCl2, 0.1% Tween-20, 5% glycerol, 0.1 mg/mL BSA, 2 mM DTT; 25 C; 0.0125-409.6 nM protein
Conditions: tags: N-His6-TEV cleaved; C-SNAP kept, Cy3B-labelled; label: tethered on chip by stalled RNA polymerase
Measure name: Kd (nM)
I only need the number, in nM, no unit after it.

Below are worked cases with known answers.
| Binder | Kd / nM |
| --- | --- |
| UCUCUUUGUACCGUUCUCUU (ssRNA) [Ic_S1_P3E.1_K3.1_C3.1_H3.1_A3.1_[T5C]_[A6C]_F3.1_[T7G]_[A8T]_T3.1] | 391 |
| Id_ii_S2_P3E.2_K3.1_C3.2_[C-2G]_H3.1_A3.1_F3.1_T3.2_[T9C]_[A10C] (ssRNA) RNA: UUUGAUUAAUAUGAUAUCGUUCUUUCUGUUGUAUAUACCUUCUUUCUCGAUAUCAUAUUAAUCUUU | 18 |
| UCUCUUUGUACUAUUCUCUU (ssRNA) [Ic_S1_P3E.1_K3.1_C3.1_H3.1_A3.1_[T5C]_[A6T]_F3.1_[T7A]_[A8T]_T3.1] | 9.51 |
| UCUCUUCUUUCUGUAUAUAUAUCUCUU (ssRNA) [Ie_S1_P3E.2_K3.1_C3.2_H3.1_[+1TCT]_A3.1_F3.1_T3.2] | 3.95 |
| UCUCUUUGCAUUAUUAUCUCUU (ssRNA) [Ia_S1_P5E.1_K5.1_C5.1_H5.1_[T3C]_A5.1_F5.1_T5.1] | 1250 |
| Ic_S4_P4E.1_K4.1_C4.1_H4.1_A4.1_[A6C]_F4.1_[T8C]_[A9G]_T4.1 (ssRNA) RNA: UUUGACAACUGAUCGUUCUUUCUUGUAUCUCGUUCUUUCUCGAUCAGUUGUCUUU | 31.1 |
| ACAAACUUUAUAUUAUUACCACAAAC (ssRNA) [Id_ii_S3_P5E.3_K5.2_C5.2_[C-2T]_H5.2_A5.1_F5.1_T5.2_[T11C]_[A12C]] | 268 |
| Ic_S2_P4E.1_K4.1_C4.1_H4.1_A4.1_[T5G]_[A6C]_[T7C]_F4.1_[T8A]_[A9C]_T4.1 (ssRNA) RNA: UUUGAUUAAUAUGAUAUCGUUCUUUCUUGUAGCCACUUCUUUCUCGAUAUCAUAUUAAUCUUU | 1280 |
| Ie_S2_P3E.2_K3.1_C3.2_H3.1_A3.1_F3.1_[+8CTC]_T3.2 (ssRNA) RNA: UUUGAUUAAUAUGAUAUCGUUCUUUCUCUUGUAUAUACUCUAUUCUUUCUCGAUAUCAUAUUAAUCUUU | 5.33 |
| Ic_S2_P5E.1_K5.1_C5.1_H5.1_A5.1_[T6G]_[A7T]_F5.1_[T8A]_[T9A]_T5.1 (ssRNA) RNA: UUUGAUUAAUAUGAUAUCGUUCUUUCUUGUAUGUAAAUUCUUUCUCGAUAUCAUAUUAAUCUUU | 53.7 |

Ask | Hello, please tell me recorded Kd for this one: Id_ii_S2_P5E.3_K5.2_C5.2_[T-1A]_H5.2_A5.1_F5.1_T5.2_[T11C] (ssRNA) RNA: UUUGAUUAAUAUGAUAUCGUUCUUUCUCAUAUAUUAUUACAUUCUUUCUCGAUAUCAUAUUAAUCUUU
Reply | 166

Ask | Hello, please tell me recorded Kd for this one: UCUCUUUGUAUACUUAUCUCUU (ssRNA) [Ie_S1_P4E.1_K4.1_C4.1_H4.1_A4.1_[+6C]_F4.1_T4.1]
Reply | 4.35
